Target: T1, Cynomolgus OSM (cynomolgus, UniProt A0A2K5VPC6 26-221)
T1 construct: also called Cyno OSM; cynomolgus macaque OSM
T1 sequence: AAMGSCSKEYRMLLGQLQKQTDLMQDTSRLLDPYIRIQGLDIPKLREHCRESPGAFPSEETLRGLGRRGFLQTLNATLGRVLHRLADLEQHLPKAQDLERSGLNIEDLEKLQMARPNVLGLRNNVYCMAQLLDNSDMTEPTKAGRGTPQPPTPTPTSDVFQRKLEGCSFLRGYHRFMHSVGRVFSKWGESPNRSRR
Experiment: BIAcore kinetics, transfection supernatant
Observation Type: kon (M⁻¹ s⁻¹)

[[record]]
binder = "Humanised 10G8 H0 IGHV3_7 + L1 (antibody, V domains shown, built from the statement that the germline CDRH1 was exchanged for the mouse CDRH1 in H0; Human gamma 1/kappa constant regions) VH: EVQLVESGGGLVQPGGSLRLSCAASGFTFSSYWMSWVRQAPGKGLEWVATISDGGSFTYYLDNVRGRFTISRDNAKNSLYLQMNSLRAEDTAVYYCARDVGHTTFWYFDVWGRGTLVTVSS VL: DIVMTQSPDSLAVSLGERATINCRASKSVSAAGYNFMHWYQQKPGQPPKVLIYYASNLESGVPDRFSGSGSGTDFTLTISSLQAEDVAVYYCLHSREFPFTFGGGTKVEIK"
observation_type = "kon"
scale_unit = "M⁻¹ s⁻¹"
observed = "3.37e+07"

[[record]]
binder = "Humanised 10G8 H0(IGHV3-23)L1 (antibody, human IgG1, kappa, V domains shown, IgG1 kappa; also called H0(huCDRH1)L1; H0 (CDRH1 IGHV3_23) L1) VH: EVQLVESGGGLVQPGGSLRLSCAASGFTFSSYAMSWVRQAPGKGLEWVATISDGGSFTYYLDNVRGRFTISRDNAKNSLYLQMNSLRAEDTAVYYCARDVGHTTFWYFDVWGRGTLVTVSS VL: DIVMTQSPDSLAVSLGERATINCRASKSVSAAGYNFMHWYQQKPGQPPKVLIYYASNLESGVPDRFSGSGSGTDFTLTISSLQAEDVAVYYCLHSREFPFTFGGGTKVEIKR"
observation_type = "kon"
scale_unit = "M⁻¹ s⁻¹"
observed = 352000

